System: Staphylococcus aureus S13E
experiment_notes: MIC, standard agar-dilution assay
Format: cell-based
Kindly state MIC for each of the entries shown.
The answer consists of two parts: a number and, after it, its unit.

Input: For the compound `CCCCC/C=C/CCCN[C@@H]1[C@H](C)[C@@H](O)[C@](C)(O)[C@@H](CC)OC(=O)[C@H](C)[C@@H](O[C@H]2C[C@@](C)(OC)[C@@H](O)[C@H](C)O2)[C@H](C)[C@@H](O[C@@H]2O[C@H](C)C[C@H](N(C)C)[C@H]2O)[C@](C)(O)C[C@H]1C` , what MIC is on record?
Output: 0.25 µg/mL

Input: For the compound `CC[C@H]1OC(=O)[C@H](C)[C@@H](O[C@H]2C[C@@](C)(OC)[C@@H](O)[C@H](C)O2)[C@H](C)[C@@H](O[C@@H]2O[C@H](C)C[C@H](N(C)C)[C@H]2O)[C@](C)(O)C[C@@H](C)[C@H](N(C)C)[C@H](C)[C@@H](O)[C@]1(C)O` , what MIC is on record?
Output: 2 µg/mL

Input: For the compound `CC[C@H]1OC(=O)[C@H](C)[C@@H](O[C@H]2C[C@@](C)(OC)[C@@H](O)[C@H](C)O2)[C@H](C)[C@@H](O[C@@H]2O[C@H](C)C[C@H](N(C)C)[C@H]2O)[C@](C)(O)C[C@@H](C)[C@H]2[C@H](C)[C@@H](OCN2C(C)C)[C@]1(C)O` , what MIC is on record?
Output: 1 µg/mL

Input: For the compound `CCCCC/C=C\CCCN[C@@H]1[C@H](C)[C@@H](O)[C@](C)(O)[C@@H](CC)OC(=O)[C@H](C)[C@@H](O[C@H]2C[C@@](C)(OC)[C@@H](O)[C@H](C)O2)[C@H](C)[C@@H](O[C@@H]2O[C@H](C)C[C@H](N(C)C)[C@H]2O)[C@](C)(O)C[C@H]1C` , what MIC is on record?
Output: 0.25 µg/mL

Input: For the compound CC[C@H]1OC(=O)[C@H](C)[C@@H](O[C@H]2C[C@@](C)(OC)[C@@H](O)[C@H](C)O2)[C@H](C)[C@@H](O[C@@H]2O[C@H](C)C[C@H](N(C)C)[C@H]2O)[C@](C)(O)C[C@@H](C)[C@H](NCC2CC=CCC2)[C@H](C)[C@@H](O)[C@]1(C)O (some centres unmarked) , what MIC is on record?
Output: 1 µg/mL

Input: For the compound `CC[C@H]1OC(=O)[C@H](C)[C@@H](O[C@H]2C[C@@](C)(OC)[C@@H](O)[C@H](C)O2)[C@H](C)[C@@H](O[C@@H]2O[C@H](C)C[C@H](N(C)C)[C@H]2O)[C@](C)(O)C[C@@H](C)[C@H](N(C)C2CCCCC2)[C@H](C)[C@@H](O)[C@]1(C)O` , what MIC is on record?
Output: 16 µg/mL

Input: For the compound CCN[C@@H]1[C@H](C)[C@@H](O)[C@](C)(O)[C@@H](CC)OC(=O)[C@H](C)[C@@H](O[C@H]2C[C@@](C)(OC)[C@@H](O)[C@H](C)O2)[C@H](C)[C@@H](O[C@@H]2O[C@H](C)C[C@H](N(C)C)[C@H]2O)[C@](C)(O)C[C@H]1C [Compound 2, (9S)-9-Deoxo-9-(ethylamino)erythromycin] , what MIC is on record?
Output: 2 µg/mL

Input: For the compound `CC[C@H]1OC(=O)[C@H](C)[C@@H](O[C@H]2C[C@@](C)(OC)[C@@H](O)[C@H](C)O2)[C@H](C)[C@@H](O[C@@H]2O[C@H](C)C[C@H](N(C)C)[C@H]2O)[C@](C)(O)C[C@@H](C)[C@H](NCC2CCCCCCC2)[C@H](C)[C@@H](O)[C@]1(C)O` , what MIC is on record?
Output: 0.06 µg/mL

Input: For the compound `CC[C@H]1OC(=O)[C@H](C)[C@@H](O[C@H]2C[C@@](C)(OC)[C@@H](O)[C@H](C)O2)[C@H](C)[C@@H](O[C@@H]2O[C@H](C)C[C@H](N(C)C)[C@H]2O)[C@](C)(O)C[C@@H](C)[C@H](N(C)C(C)C)[C@H](C)[C@@H](O)[C@]1(C)O` , what MIC is on record?
Output: 8 µg/mL

Input: For the compound `CCCCCCCCN[C@@H]1[C@H](C)[C@@H](O)[C@](C)(O)[C@@H](CC)OC(=O)[C@H](C)[C@@H](O[C@H]2C[C@@](C)(OC)[C@@H](O)[C@H](C)O2)[C@H](C)[C@@H](O[C@@H]2O[C@H](C)C[C@H](N(C)C)[C@H]2O)[C@](C)(O)C[C@H]1C` , what MIC is on record?
Output: 0.25 µg/mL

Input: For the compound `CCCN[C@@H]1[C@H](C)[C@@H](O)[C@](C)(O)[C@@H](CC)OC(=O)[C@H](C)[C@@H](O[C@H]2C[C@@](C)(OC)[C@@H](O)[C@H](C)O2)[C@H](C)[C@@H](O[C@@H]2O[C@H](C)C[C@H](N(C)C)[C@H]2O)[C@](C)(O)C[C@H]1C` , what MIC is on record?
Output: 0.25 µg/mL

Input: For the compound `CC[C@H]1OC(=O)[C@H](C)[C@@H](O[C@H]2C[C@@](C)(OC)[C@@H](O)[C@H](C)O2)[C@H](C)[C@@H](O[C@@H]2O[C@H](C)C[C@H](N(C)C)[C@H]2O)[C@](C)(O)C[C@@H](C)[C@H](NCCCCCO)[C@H](C)[C@@H](O)[C@]1(C)O` , what MIC is on record?
Output: 0.25 µg/mL

Input: For the compound `CCCCCCN[C@@H]1[C@H](C)[C@@H](O)[C@](C)(O)[C@@H](CC)OC(=O)[C@H](C)[C@@H](O[C@H]2C[C@@](C)(OC)[C@@H](O)[C@H](C)O2)[C@H](C)[C@@H](O[C@@H]2O[C@H](C)C[C@H](N(C)C)[C@H]2O)[C@](C)(O)C[C@H]1C` , what MIC is on record?
Output: 1 µg/mL

Input: For the compound `CC[C@H]1OC(=O)[C@H](C)[C@@H](O[C@H]2C[C@@](C)(OC)[C@@H](O)[C@H](C)O2)[C@H](C)[C@@H](O[C@@H]2O[C@H](C)C[C@H](N(C)C)[C@H]2O)[C@](C)(O)C[C@@H](C)[C@H](N2CCCCC2)[C@H](C)[C@@H](O)[C@]1(C)O` , what MIC is on record?
Output: 16 µg/mL

Hello, the source for this data is patent EP0238178B1, in case you need it.
